Data credit: ChEMBL document CHEMBL1149166

System: Mycobacterium tuberculosis
Experiment: Percent inhibitory activity against Mycobacterium tuberculosis H37Rv Strain at 6.25 ug/mL
Type: functional
Recorded measurements of inhibition at 6.25 µg/mL, one per entry
assayMetric: inhibition at 6.25 µg/mL (%)

smilesstr=O=[N+]([O-])c1ccccc1CSc1nc(O)nc2nc[nH]c12 targetorsystem="Mycobacterium tuberculosis" datavalue=61
smilesstr=Oc1nc(SCc2ccccc2)c2[nH]cnc2n1 targetorsystem="Mycobacterium tuberculosis" datavalue=94
smilesstr=CCCCCCCCCCSc1ncnc2c1ncn2CC(=O)OCC targetorsystem="Mycobacterium tuberculosis" datavalue=100
smilesstr=COc1cccc(CSc2[nH]c(O)nc3ncnc2-3)c1 targetorsystem="Mycobacterium tuberculosis" datavalue=59
smilesstr=CCOC(=O)Cn1cnc2c(SCc3cc(Cl)ccc3F)nc(O)nc21 targetorsystem="Mycobacterium tuberculosis" datavalue=17
smilesstr=CCCCCCCCCCSc1ncnc2c1ncn2CC(N)=O targetorsystem="Mycobacterium tuberculosis" datavalue=0
smilesstr=Oc1nc(SCc2ccc(F)cc2C(F)(F)F)c2[nH]cnc2n1 targetorsystem="Mycobacterium tuberculosis" datavalue=50
smilesstr=CCCCCCCCCCCSc1[nH]cnc2ncnc1-2 targetorsystem="Mycobacterium tuberculosis" datavalue=98
smilesstr=CCCCCCCCCCSc1ncnc2c1ncn2CC(=O)OCc1ccccc1 targetorsystem="Mycobacterium tuberculosis" datavalue=0
smilesstr=CCOC(=O)Cn1cnc2c(Sc3ccc(C)cc3)ncnc21 targetorsystem="Mycobacterium tuberculosis" datavalue=99
smilesstr=CCCCCCCCCCCCSc1ncnc2c1ncn2CC(=O)OCC targetorsystem="Mycobacterium tuberculosis" datavalue=98
smilesstr=CCOC(=O)Cn1cnc2c(SCc3ccccc3F)nc(O)nc21 targetorsystem="Mycobacterium tuberculosis" datavalue=22
smilesstr=CCOC(=O)Cn1cnc2c(SCc3ccccc3)nc(O)nc21 targetorsystem="Mycobacterium tuberculosis" datavalue=25
smilesstr=Oc1nc(SCc2ccccc2Cl)c2[nH]cnc2n1 targetorsystem="Mycobacterium tuberculosis" datavalue=62
smilesstr=CCCCCCCCCCSc1[nH]c(Cl)nc2ncnc1-2 targetorsystem="Mycobacterium tuberculosis" datavalue=86
